test system: U-87 MG; experiment: Antiproliferative activity against human U-87 MG cells assessed as reduction in cell viability measured after 24 to 48 hrs by MTT assay; type: functional, cell-based, U-87MG ATCC
measurement.name: pIC50
Units for pIC50: none; it is -log10 of a concentration expressed in mol/L.

Problem: Please look up its pIC50: COc1ccc(-c2nc(C)c(C(=O)CSc3nc(-c4cccc(Cl)c4)c(C#N)c(=O)[nH]3)s2)cc1
Result: 4.10

Problem: Record: COc1ccc(-c2nc(SCC(=O)c3sc(-c4ccccc4)nc3C)[nH]c(=O)c2C#N)cc1
Result: 4.32

Problem: Record: COc1ccc(-c2nc(C)c(C(=O)CSc3nc(-c4cccc(OC)c4)c(C#N)c(=O)[nH]3)s2)cc1
Result: 4.81

Problem: Record: Cc1nc(-c2ccc(Cl)cc2)sc1C(=O)CSc1nc(-c2ccc(Cl)c(Cl)c2)c(C#N)c(=O)[nH]1
Result: 4.08

Problem: Record: Cc1nc(-c2ccc(Cl)cc2)sc1C(=O)CSc1nc(-c2cccc(Cl)c2)c(C#N)c(=O)[nH]1
Result: 4.40

Problem: Record: COc1ccc(-c2nc(C)c(C(=O)CSc3nc(-c4ccc(OC)c(OC)c4)c(C#N)c(=O)[nH]3)s2)cc1
Result: 4.90

Problem: Record: COc1ccc(-c2nc(C)c(C(=O)CSc3nc(-c4ccccc4)c(C#N)c(=O)[nH]3)s2)cc1
Result: 4.24

Where do these numbers come from? They come from ChEMBL document CHEMBL4706654.
